# procedure-summary: chemical genetic growth profiling, strain panel (AID 1159580);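 also: tested at 20 µM; growth read once vehicle control cultures reached saturation at 30 °C; 1 = growth at the plate median or of vehicle wells; lower values mean less growth of the strain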
# condition-parameters: S. cerevisiae deletion strains, growth OD, locus YMR058W, strain fet3
The campaign covered roughly 5,500 compounds. About 2,000 (36%) were called active. Roughly 18% stayed inconclusive and do not appear here. Rule as the data show it: active = normalized growth mostly below about 0.91 (no sharp cut-off); inconclusive = no clear call, values can overlap the other calls; inactive = mostly above about 0.92. This is one part of the list.
Outcome codes: active, inactive

COc1ccc2c(=O)c(-c3cc4c(cc3OC)OCO4)coc2c1 :: inactive
COc1cc(OC)c2c(=O)c(-c3ccc4c(c3)OCO4)coc2c1 :: inactive
O=C1c2ccccc2-c2cccc3cccc1c23 :: active
CC(C)=CCc1c(O)cc2occ(-c3ccc4c(c3)OCO4)c(=O)c2c1O :: active
COc1cc(O)c(C(=O)O)c(O)c1 :: inactive
CC(C(=O)O)c1ccc(N2Cc3ccccc3C2=O)cc1 (stereo unspecified) :: inactive

* * *

# procedure-summary: chemical genetic growth profiling, strain panel (AID 1159580)
# condition-parameters: S. cerevisiae deletion strains, growth OD, locus YNL153C, strain GIM3, hits give low values
Hit rate of the full screen: of about 5,500 compounds, about 2,000 (36%) were called active. Not shown: some 18% with an inconclusive outcome. Some of the results follow.
measure: normalized growth

CCCCC(=O)N(Cc1ccc(-c2ccccc2-c2nn[nH]n2)cc1)[C@H](C(=O)O)C(C)C :: 0.991 (inactive)
CCCc1nc(C(C)(C)O)c(C(=O)OCc2oc(=O)oc2C)n1Cc1ccc(-c2ccccc2-c2nn[nH]n2)cc1 :: 0.996 (inactive)
CCOC(=O)CC1=Nn2c(nnc2-c2cc(Cl)cc(Cl)c2)SC1 :: 0.95 (inactive)
CCCCCC(CC(=O)NO)C(=O)NC(C(=O)N1CCCC1CO)C(C)C (stereo not given) :: 0.976 (inactive)
CC(=O)CSc1nsc(SCC(C)=O)c1C#N :: 0.979 (inactive)

* * *

# procedure-summary: chemical genetic growth profiling, strain panel (AID 1159580)
# condition-parameters: S. cerevisiae deletion strains, growth OD, locus YHR082C, strain KSP1
Screen size: about 5,500 compounds; about 2,000 (36%) were called active. Another 18% or so got no clear call; they are omitted. No stated cut-off is given here; in the data, active means normalized growth mostly below about 0.91 (no sharp cut-off); inconclusive means no clear call, values can overlap the other calls; inactive means mostly above about 0.92. The list shows a part of the results.
Outcomes: Y = active, N = inactive

CCC1(c2ccccc2)OC(c2cc(Cl)cc(Cl)c2O)Nc2ccccc21 (stereo unspecified) :: N
Oc1ccc(-n2nnnc2SCc2ccc(OC(F)(F)F)cc2)cc1 :: N
N#CC(C#N)=NNc1cc(C(F)(F)F)ccc1OCC(F)(F)F :: Y
COc1ccc(/C(C#N)=C2C=C/C(=N/O)C(Cl)=C\2)cc1 :: N
N/C(=N/OC(=O)c1ccccc1Cl)c1cccc(CS(=O)(=O)c2ccc(Cl)cc2)c1 :: N
O=C(Nc1ccc(OC(F)(F)F)cc1)Nc1cncc(C(F)(F)F)c1 :: N
O=C(Oc1ccc(C2SCCS2)cc1)c1cccs1 :: N
Cc1nc([N+](=O)[O-])cn1CC(=O)c1ccc(Cl)cc1 :: N
N#CC(C#N)=NNc1ccc(C(F)(F)F)cc1 :: Y
COc1cc(OC)cc(/C(N)=N\O)c1 :: N
Nc1ccccc1C(=O)N/N=C\c1cc(Cl)cc(Cl)c1O :: N

* * *

# procedure-summary: chemical genetic growth profiling, strain panel (AID 1159580)
# condition-parameters: S. cerevisiae deletion strains, growth OD, locus YLR058C, strain SHM2, hits give low values
Screen size: about 5,500 compounds; about 2,000 (36%) were called active. Inconclusive results (about 18%) are left out. The list shows a part of the results.
Parameter normalized growth: see the listing below.
measure: normalized growth

CC(=O)N[C@@H](CC(=O)O)C(=O)O :: 1.01
O=c1c(-c2ccc3c(c2)OCO3)coc2cc(O)ccc12 :: 0.994
CC1=C2[C@](C)(C=CC1=O)C[C@H](O)[C@H]1[C@H](C)C(=O)O[C@]21C :: 1.02
O=C1OC(=O)C2C3CCC(O3)C12 (stereo unspecified) :: 1.01
CCCCCN=C(N)N/N=C\c1c[nH]c2ccc(OC)cc12 :: 0.99
C/C=C(\C)C(=O)OC1[C@@H]2C=C3C4CC(=O)O[C@@H](c5ccoc5)[C@]4(C)CCC3[C@@](C)(C2=O)[C@@H](C(O)C(=O)OC)C1(C)C (stereo partly specified) :: 1
COc1cc(O)c(C)c(O)c1 :: 1.01
CSCCC(NC=O)C(=O)NC(CC(C)C)C(=O)NC(Cc1ccccc1)C(=O)O (stereo unspecified) :: 1.02
COc1cc2ccc(=O)oc2cc1O :: 0.988
COc1cc2ccc(=O)oc2c(O)c1O :: 1
CN(C)c1nc(N(C)C)nc(N(C)C)n1 :: 1.01

* * *

# procedure-summary: chemical genetic growth profiling, strain panel (AID 1159580);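 also: tested at 20 µM; growth read once vehicle control cultures reached saturation at 30 °C; 1 = growth at the plate median or of vehicle wells; lower values mean less growth of the strain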
# condition-parameters: S. cerevisiae deletion strains, growth OD, locus YJR066W, strain TOR1 (second series), hits give low values
Hit rate of the full screen: of about 5,500 compounds, about 2,000 (36%) were called active. About 18% were inconclusive and are not listed. This is one part of the list.
measure: normalized growth

Cc1nn(Cc2cccc(C(=O)O/N=C(/N)c3ccc(Cl)cc3)c2)c(C)c1Br :: 0.954
Fc1ccc(Nc2nc(-c3ccc(F)c(F)c3)cs2)c(F)c1 :: 0.0987
CSc1nc(Sc2n[nH]c(-c3ccccc3)n2)cc(Sc2n[nH]c(-c3ccccc3)n2)n1 :: 1.01
O=S(=O)(Nc1cc(-c2cccs2)nn1-c1ccc(I)cc1)c1cccc(F)c1 :: 0.952
Cc1nc(C(F)(F)F)ccc1-c1nnc(SC(=O)c2ccc(Cl)cc2)o1 :: 0.393

* * *

# procedure-summary: chemical genetic growth profiling, strain panel (AID 1159580);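 also: tested at 20 µM; growth read once vehicle control cultures reached saturation at 30 °C; 1 = growth at the plate median or of vehicle wells; lower values mean less growth of the strain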
# condition-parameters: S. cerevisiae deletion strains, growth OD, locus YBR135W, strain CKS1
About 2,000 (36%) of roughly 5,500 compounds were called active. Another 18% or so got no clear call; they are omitted. No stated cut-off is given here; in the data, active means normalized growth mostly below about 0.91 (no sharp cut-off); inconclusive means no clear call, values can overlap the other calls; inactive means mostly above about 0.92. Some of the results follow.
Possible outcomes: active, inactive

CSc1nc(Sc2n[nH]c(-c3ccccc3)n2)cc(Sc2n[nH]c(-c3ccccc3)n2)n1 :: inactive
O=S(=O)(Nc1ccc(-n2nc(C(F)(F)F)cc2-c2cccs2)cc1)c1ccc(F)cc1 :: inactive
N#C/C(=N/Nc1ccc(C(F)(F)F)cc1)C(=O)C1CC1 :: inactive
CCCCc1ccc(N=CNO)c(C)c1 :: inactive
O=C(OCc1ccc(Oc2ccc(Cl)cc2Cl)c([N+](=O)[O-])c1)c1ccc([N+](=O)[O-])o1 :: inactive
O=C(NNc1c(Cl)cccc1Cl)c1ccc([N+](=O)[O-])o1 :: inactive
O=C(Oc1ccc(C2SCCS2)cc1)c1cccs1 :: inactive
Cc1c(C(=O)NCCNc2ccc(C(F)(F)F)cc2[N+](=O)[O-])cnn1-c1ccc(F)cc1 :: inactive
CC(C)(C)c1cc(C(=O)/C(C#N)=N\Nc2ccc(Cl)cc2)no1 :: inactive
CC(NC(=S)Nc1ccc(Oc2ccc(Cl)cc2)cc1)c1ccccc1 (stereo not drawn) :: inactive
Fc1ccc(Nc2nc(-c3ccc(F)c(F)c3)cs2)c(F)c1 :: active
CSC(SC)=C(C#N)C(=O)c1ccccc1Cl :: active
CCCCCc1ccc(S(=O)(=O)Nc2ncc(C)cc2Br)cc1 :: inactive
O=C(c1ccc(Cl)cc1)N1CCN(c2ccc(C(F)(F)F)cn2)CC1 :: inactive
CCOC(=O)C1C(c2ccc(Br)cc2)C(C(=O)OCC)C(O)(C(F)(F)F)NC1(O)C(F)(F)F (stereo not drawn) :: inactive
N#CC(C#N)=NNc1cc(C(F)(F)F)ccc1OCC(F)(F)F :: inactive
C(=NC(N=Cc1ccccc1)c1ccccc1)c1ccccc1 (stereo not drawn) :: inactive
N#CC(C#N)=NNc1ccc(C(F)(F)F)cc1 :: active
COc1ccc(-c2cc(NS(=O)(=O)c3cccc(F)c3)n(-c3ccc(Cl)c(Cl)c3)n2)cc1 :: inactive
O=C(SCc1c(Cl)cccc1Cl)c1ccc([N+](=O)[O-])o1 :: inactive
N#C/C(=C\C=C\c1ccccc1)c1nc2ccccc2[nH]1 :: inactive
COc1cccc(C(=O)C(C#N)=C(SC)SC)c1 :: active
O=C(Nc1ccc(Cl)cc1)c1csc([N+](=O)[O-])c1 :: inactive

* * *

# procedure-summary: chemical genetic growth profiling, strain panel (AID 1159580);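 also: tested at 20 µM; growth read once vehicle control cultures reached saturation at 30 °C; 1 = growth at the plate median or of vehicle wells; lower values mean less growth of the strain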
# condition-parameters: S. cerevisiae deletion strains, growth OD, locus YJR075W, strain HOC1, hits give low values
The whole screen tested about 5,500 compounds, of which about 2,000 (36%) were called active. Another 18% or so got no clear call; they are omitted. Some of the results follow.
Each entry below carries its reported normalized growth.
measure: normalized growth

O=C(Oc1ccc(F)cc1)c1cccs1 :: 0.986
CC(=O)/C(=C\N(C)C)Sc1nnc(C(F)(F)F)n1C :: 0.987
c1ccc2c(c1)-c1cccc3cccc-2c13 :: 0.771
CCN(CC)CCNC(=O)COc1ccc(OC)cc1 :: 0.983
Cc1ncc([N+](=O)[O-])n1CCO :: 1.01
O=C(O)CNC(=O)C(CS)Cc1ccccc1 (stereo not given) :: 0.996
CC(=O)c1csc([N+](=O)[O-])c1 :: 0.99
COC1(C2=NCCN2)COc2ccccc2O1 (stereo not given) :: 1.01
O=c1nc(-c2ccccc2)nc(-c2ccccc2)[nH]1 :: 1
NC(=S)c1ccc2nonc2c1 :: 1.01
CC(=O)O[C@@H]1CC2C(C)(C)C(=O)[C@@H]3O[C@@H]3[C@]2(C)C2CC[C@]3(C)C(=CC(=O)O[C@H]3c3ccoc3)[C@@]21C (stereo not given in full) :: 1
O=c1oc(Cl)c(Cl)c2ccccc12 :: 0.998
S=c1nc(-c2ccccc2)[nH][nH]1 :: 0.982
CCCCCN=C(N)N/N=C\c1c[nH]c2ccc(OC)cc12 :: 0.996
CCCCCc1ccc(S(=O)(=O)Nc2cccnc2Oc2ccc(Cl)cc2)cc1 :: 0.964
N#C/C(=C\Nc1ccc2c(c1)OCCO2)S(=O)(=O)c1ccc(C(F)(F)F)cn1 :: 1.02
CCCN(CCC)[C@@H]1CCc2cccc(O)c2C1 :: 1.02
O=c1ccc2ccc(O)c(O)c2o1 :: 1.05
CCCN(CCC)[C@H]1CCc2c(F)ccc(O)c2C1 :: 1.01
COc1ccc(/C(C)=N\NC2=NCCCN2)cc1 :: 0.986
CC1(C)S[C@@H]2[C@H](NC(=O)COc3ccccc3)C(=O)N2[C@H]1C(=O)O :: 1
Cc1cc(O)c2c(c1O)C(=O)c1c(O)cc(C)c(O)c1C2=O :: 1.01
Cc1onc(-c2c(F)cccc2Cl)c1C(=O)N1CCN(c2ncccc2C(F)(F)F)CC1 :: 1.01
CCCN(CCC)[C@@H]1CCc2c(F)ccc(O)c2C1 :: 1.02
Cc1cc(C)nc(NS(=O)(=O)c2ccc(N)cc2)n1 :: 0.98
